Tested on: ciPTEC-OAT3
TEST_DETAILS: MTT viability assay, ciPTEC-OAT3
Type: cell-based, human
REPORTED_CONDITIONS: ciPTEC-OAT3, 24, 48 and 72 h
MEASURE_NAME: Cell viability (MTT), concentration and time dependence

SMILES_DATA: C[C@H](Cn1cnc2c(N)ncnc21)OCP(=O)(O)O
MEAS_VALUE: less pronounced

SMILES_DATA: Nc1ncnc2c1ncn2CCOCP(=O)(O)O
MEAS_VALUE: less pronounced

SMILES_DATA: Nc1ccn(C[C@@H](CO)OCP(=O)(O)O)c(=O)n1
MEAS_VALUE: less pronounced
